experiment: Selectivity index, ratio of CC50 for human mock-infected MT4 cells to EC50 for HIV1 3B harboring reverse transcriptase L100I mutant infected in human MT4 cells; format: toxicity, cell-based; settings: MT4 cells (mock-infected for CC50, HIV-1 infected for EC50)
Observed Property: selectivity ratio
Could you keep your reply to the number by itself?

Some molecules with known selectivity ratio results, for comparison:
Task: Could you share which selectivity ratio value was measured for COC(=O)c1ccc(CN2CCC(Nc3nc(Oc4c(C)cc(C)cc4C)c4sccc4n3)CC2)cc1 ?
Output: 38

Task: Fill in the blank: the reported selectivity ratio of Cc1cc(C#N)cc(C)c1Oc1nc(NC2CCN(Cc3ccc(S(C)(=O)=O)cc3)CC2)nc2ccsc12 is ____.
Output: 306

Task: Which measured selectivity ratio value corresponds to Cc1cc(C)c(Oc2nc(NC3CCN(Cc4ccc(F)cc4)CC3)nc3ccsc23)c(C)c1 ?
Output: 10

Task: What measured selectivity ratio goes with Cc1cc(C#N)cc(C)c1Oc1nc(NC2CCN(Cc3ccc(C(N)=O)cc3)CC2)nc2ccsc12 ?
Output: 8760

Others:
Task: Look up selectivity ratio: Cc1cc(C)c(Oc2nc(NC3CCN(Cc4ccc(S(N)(=O)=O)cc4)CC3)nc3ccsc23)c(C)c1
Output: 4

Task: If you can, please state the reported selectivity ratio value of Cc1cc(C)c(Oc2nc(NC3CCN(Cc4ccncc4)CC3)nc3ccsc23)c(C)c1 .
Output: 101

###

Below: a set of entries, each annotated with reported selectivity ratio.
assay: Selectivity index, ratio of CC50 for human mock-infected MT4 cells to EC50 for wild type HIV1 3B harboring reverse transcriptase infected in human MT4 cells; type: toxicity, cell-based; conditions: MT4 cells (mock-infected for CC50, HIV-1 infected for EC50)

Known results for compounds:
Task: Give its selectivity ratio value. Item: Cc1cc(C#N)cc(C)c1Oc1nc(NC2CCN(Cc3cccc(C(N)=O)c3)CC2)nc2ccsc12
Output: > 19200

Task: For the compound shown here, CCOC(=O)c1ccc(CN2CCC(Nc3nc(Oc4c(C)cc(C#N)cc4C)c4sccc4n3)CC2)cc1 , give the reported selectivity ratio.
Output: ≥ 1440

Here is another compound to look at.
Task: Give the measured selectivity ratio of Cc1cc(C#N)cc(C)c1Oc1nc(NC2CCN(Cc3cccc(S(N)(=O)=O)c3)CC2)nc2ccsc12 .
Output: > 96000

###

molecular target: Human immunodeficiency virus type 1 reverse transcriptase (Human immunodeficiency virus 1, UniProt Q72547, K103N/Y181C); test: Inhibition of recombinant HIV1 reverse transcriptase K103N/Y181C double mutant using DIG-dUTP/biotin-dUTP/dTTP assessed as suppression of biotin-dUTP incorporation after 1 hr by ELISA
Threshold 7 µM. IC50 below it: 1 (yes). IC50 at it or above: 0 (no).

// below: answered compounds
Task: In plain terms, does Cc1cc(C#N)cc(C)c1Oc1nc(NC2CCN(Cc3ccc(S(N)(=O)=O)cc3)CC2)nc2ccsc12 come in under 7 µM for IC50?
Output: 1 (yes)

Task: API: query returns whether the compound falls strictly under 7 µM in IC50. Query: Cc1cc(C)c(Oc2nc(NC3CCN(Cc4ccc(F)cc4F)CC3)nc3ccsc23)c(C)c1
Output: 0 (no)

Task: In the record for Cc1cc(C#N)cc(C)c1Oc1nc(NC2CCN(Cc3ccncc3)CC2)nc2ccsc12 , is IC50 less than 7 µM?
Output: 1 (yes)

Task: Input Cc1cc(C#N)cc(C)c1Oc1nc(NC2CCN(Cc3ccc(F)cc3)CC2)nc2ccsc12 ; condition: IC50 strictly below 7 µM. Does it hold?
Output: 1 (yes)

***
Task: hey, is IC50 for Cc1cc(C)c(Oc2nc(NC3CCN(Cc4ccc(S(C)(=O)=O)cc4)CC3)nc3ccsc23)c(C)c1 lower than 7 µM or not?
Output: 1 (yes)

Task: Report whether reported IC50 is lower than 7 µM (strictly) for Cc1cc(C)c(Oc2nc(NC3CCN(Cc4ccc(F)cc4)CC3)nc3ccsc23)c(C)c1
Output: 1 (yes)

Task: IC50 strictly < 7 µM for this compound? Cc1cc(C)c(Oc2nc(NC3CCN(Cc4cccc(F)c4)CC3)nc3ccsc23)c(C)c1
Output: 0 (no)

Task: is_below(IC50, 7 µM) for COC(=O)c1ccc(CN2CCC(Nc3nc(Oc4c(C)cc(C)cc4C)c4sccc4n3)CC2)cc1 ?
Output: 0 (no)

Task: Answer whether the compound Cc1cc(C#N)cc(C)c1Oc1nc(NC2CCN(Cc3ccc(S(C)(=O)=O)cc3)CC2)nc2ccsc12 has IC50 strictly less than 7 µM
Output: 1 (yes)

Task: Determine if Cc1cc(C)c(Oc2nc(NC3CCN(Cc4cccc(C#N)c4)CC3)nc3ccsc23)c(C)c1 shows IC50 strictly lower than 7 µM.
Output: 1 (yes)
